# Protocol Details: molar heat capacity at constant pressure
# Condition Label: 293.15 K; 101.33 kPa; Crystal; Small sample (50 mg) DSC
Response field label: string, one of label 1 (molar heat capacity at constant pressure strictly below 200 J/K/mol) or label 0.

Criterion: molar heat capacity at constant pressure strictly below 200 J/K/mol. Is it met by OC[C@@H](O)[C@@H](O)[C@H](O)[C@H](O)CO ?
label 0

Criterion: molar heat capacity at constant pressure strictly below 200 J/K/mol. Is it met by OC[C@@H](O)[C@@H](O)CO ?
label 1

Criterion: molar heat capacity at constant pressure strictly below 200 J/K/mol. Is it met by O[C@H]1[C@H](O)[C@@H](O)[C@H](O)[C@@H](O)[C@H]1O [cis-1,2,3,5-trans-4,6-cyclohexanehexol] ?
label 0

====

# Protocol Details: molar heat capacity at constant pressure
# Condition Label: 193.15 K; 101.33 kPa; Crystal; Small sample (50 mg) DSC
Parameter: molar heat capacity at constant pressure (J/K/mol)
Give just the numeric value; J/K/mol need not be written.

Compound: OC[C@@H](O)[C@@H](O)CO
molar heat capacity at constant pressure, J/K/mol: 107.94

Please report the recorded molar heat capacity at constant pressure for O[C@H]1[C@H](O)[C@@H](O)[C@H](O)[C@@H](O)[C@H]1O [cis-1,2,3,5-trans-4,6-cyclohexanehexol] .
136.44

Please report the recorded molar heat capacity at constant pressure for OC[C@@H](O)C(O)[C@H](O)CO .
127.14

Please report the recorded molar heat capacity at constant pressure for OC[C@H](O)C(O)[C@@H](O)CO [L-(-)-arabitol] .
134.27

Please report the recorded molar heat capacity at constant pressure for OC[C@@H](O)[C@H](O)[C@@H](O)CO .
133.63

Please report the recorded molar heat capacity at constant pressure for OC[C@@H](O)[C@@H](O)[C@H](O)[C@H](O)CO .
148.54

====

# Protocol Details: molar heat capacity at constant pressure
# Condition Label: 312.15 K; 101.33 kPa; Crystal; Small sample (50 mg) DSC
Some compounds, each annotated with its measured molar heat capacity at constant pressure.
Give just the numeric value; J/K/mol need not be written.

Compound: OC[C@H](O)C(O)[C@@H](O)CO [L-(-)-arabitol]
molar heat capacity at constant pressure / J/K/mol: 219.18
//
Compound: OC[C@@H](O)[C@@H](O)CO [meso-1,2,3,4-butanetetrol]
molar heat capacity at constant pressure / J/K/mol: 173.77
//
Compound: OC[C@@H](O)[C@H](O)[C@@H](O)CO [xylitol]
molar heat capacity at constant pressure / J/K/mol: 221.67
//
Compound: OC[C@@H](O)[C@@H](O)[C@H](O)[C@H](O)CO [D-mannitol]
molar heat capacity at constant pressure / J/K/mol: 243.21
//
Compound: OC[C@@H](O)C(O)[C@H](O)CO [D-arabitol]
molar heat capacity at constant pressure / J/K/mol: 213.04

# evaluate next
Please report the recorded molar heat capacity at constant pressure for O[C@H]1[C@H](O)[C@@H](O)[C@H](O)[C@@H](O)[C@H]1O [cis-1,2,3,5-trans-4,6-cyclohexanehexol] .
230.3

====

Some compounds, each annotated with its measured molar heat capacity at constant pressure.
# Protocol Details: molar heat capacity at constant pressure
# Condition Label: 236.15 K; 101.33 kPa; Crystal; Small sample (50 mg) DSC
Give just the numeric value; J/K/mol need not be written.

Compound: O[C@H]1[C@H](O)[C@@H](O)[C@H](O)[C@@H](O)[C@H]1O [cis-1,2,3,5-trans-4,6-cyclohexanehexol]
Unit Abbrev: J/K/mol
molar heat capacity at constant pressure: 170.76

Compound: OC[C@@H](O)[C@H](O)[C@@H](O)CO [xylitol]
Unit Abbrev: J/K/mol
molar heat capacity at constant pressure: 165.55

Compound: OC[C@@H](O)[C@@H](O)[C@H](O)[C@H](O)CO [D-mannitol]
Unit Abbrev: J/K/mol
molar heat capacity at constant pressure: 184.67

Compound: OC[C@H](O)C(O)[C@@H](O)CO [L-(-)-arabitol]
Unit Abbrev: J/K/mol
molar heat capacity at constant pressure: 163.51

Compound: OC[C@@H](O)C(O)[C@H](O)CO [D-arabitol]
Unit Abbrev: J/K/mol
molar heat capacity at constant pressure: 159.12

# evaluate next
Please report the recorded molar heat capacity at constant pressure for OC[C@@H](O)[C@@H](O)CO [meso-1,2,3,4-butanetetrol] .
132.03
